- Test system: SR
- ASSAY SUMMARY: NCI tumour cell line growth inhibition, 48 h
Activity calls are given as the source filed them. No stated cut-off is given here; in the data, active = GI50 up to about 1.1 µM and inactive = higher.
Entries and their GI50

{"columns": ["COMPOUND", "EXPERIMENTAL TARGET", "GI50"],
 "data": [
  ["Nn1c(S)nnc1N/N=C1/C(=O)Nc2c(Cl)cc(Cl)cc21", "SR", "38.3 µM (inactive)"],
  ["O=C1Nc2ccccc2NC1C1OC(c2ccccc2)=CC1=O (stereo not given)", "SR", "> 100 µM (inactive)"],
  ["COc1cccc(C(C#N)NNC(=O)c2c(Cl)c(Cl)c(Cl)c(Cl)c2-c2nc3cc(C(=O)c4ccccc4)ccc3[nH]2)c1O (stereo not given)", "SR", "2.91 µM (inactive)"],
  ["COc1cc(N(CCC#N)CCC#N)ccc1C(=N/NC(=O)c1cc(Br)ccc1O)/N=N/c1ccccc1", "SR", "16.9 µM (inactive)"],
  ["O=[N+]([O-])C(C=C(n1nnc2ccccc21)n1nnc2ccccc21)=C(n1nnc2ccccc21)n1nnc2ccccc21", "SR", "23 µM (inactive)"],
  ["COc1cc2ccc1OCc1cccc(n1)COc1ccc(cc1OC)/C=N\\c1ccc(cc1)-c1ccc(cc1)/N=C\\2", "SR", "> 100 µM (inactive)"],
  ["COCOC1/C=C/CCCCC2=C(C)C=C(C1)O2 (stereo not given)", "SR", "> 100 µM (inactive)"],
  ["Nc1ccc2nc(Nc3ccc(Cl)c(Cl)c3)cnc2c1", "SR", "2.44 µM (inactive)"],
  ["COc1c(O)c(OC)c2oc(-c3ccc(O)cc3)c(OC)c(=O)c2c1O", "SR", "60.1 µM (inactive)"],
  ["CN1C(=O)c2ccccc2NC(=O)C12O[C@@H]2c1cccc(O)c1 (stereo not given in full)", "SR", "> 100 µM (inactive)"]
]}

---

- Tested on: SF-295
- ASSAY SUMMARY: NCI tumour cell line growth inhibition, 48 h
Active and inactive are the calls of the source. Rule as the data show it: active = GI50 up to about 1.1 µM and inactive = higher.
Possible outcomes: active, inactive

{"columns": ["MOLECULE", "EXPERIMENTAL TARGET", "CLASS NAME"],
 "data": [
  ["CCN(CCCl)CCNc1c2ccccc2nc2ccc(OC)cc12", "SF-295", "active"],
  ["Nn1c(-c2ccccc2)nn(C(=O)c2ccccc2)c1=O", "SF-295", "inactive"],
  ["O=C1OC(C(O)CO)C(C(O)CO)OC1=O (centres undefined)", "SF-295", "inactive"],
  ["C[C@@H]1S[C@H](c2ccccc2F)N2Cc3ccccc3N=C12", "SF-295", "inactive"],
  ["CCn1c2c(c3ccccc31)C(c1ccccc1)CC1C(=O)N(c3ccccc3)C(=O)C21 (centres undefined)", "SF-295", "inactive"],
  ["O=C1Nc2ccccc2/C1=N/Nc1ccccc1[N+](=O)[O-]", "SF-295", "inactive"],
  ["CO/N=C(\\C)c1cccc(Nc2c3ccccc3nc3occc23)c1", "SF-295", "inactive"],
  ["COc1cc2oc(=O)ccc2cc1CC=C(C)C", "SF-295", "inactive"],
  ["CCC(=O)Nc1ccc(NCC(=O)Nc2ccc(OC)cc2)cc1", "SF-295", "inactive"],
  ["Cc1ccc(S(=O)(=O)NC(=O)Nc2ccc(C(=O)O)c(O)c2)cc1", "SF-295", "inactive"],
  ["O=C(O)CCC(NC(=O)c1ccc(CNc2nc3ccccc3nc2C(=O)O)cc1)C(=O)O (centres undefined)", "SF-295", "inactive"],
  ["Cc1cc(Br)cc(C)c1NC(=O)C(=O)C(C(=O)c1ccc(Cl)c(Cl)c1)C1OC(=O)c2ccccc21 (centres undefined)", "SF-295", "inactive"],
  ["Cc1ccc2[nH]/c(=N/S(=O)(=O)c3cc(C)c(Cl)cc3S)[nH]c2c1", "SF-295", "inactive"],
  ["[N-]=[N+]=NC1(c2ccccc2)C(=O)Nc2ccccc2C1=O (centres undefined)", "SF-295", "inactive"],
  ["Oc1ccc(Cl)cc1C1=Nn2c(COc3ccc4c(c3)CCCC4)nnc2SC1", "SF-295", "inactive"],
  ["c1ccc(-c2cc(-c3ccccc3)nc(-c3ccncc3)c2)cc1", "SF-295", "inactive"],
  ["COc1cc(C(=O)Oc2c(C#N)sc3c2c(=O)n(-c2ccccc2)c(=S)n3-c2ccccc2)cc(OC)c1OC", "SF-295", "inactive"],
  ["CCCCOCCOCCOC1=C(Cl)C(=O)c2c(O)ccc(O)c2C1=O", "SF-295", "inactive"],
  ["Cc1nc2ccccc2c(=O)n1NC(=O)c1ccc([N+](=O)[O-])cc1", "SF-295", "inactive"],
  ["O=C(O)c1c[nH]cc1C(=O)O", "SF-295", "inactive"],
  ["CCN(CC)CCNC(=O)c1cccc2cc3ccccc3nc12", "SF-295", "inactive"],
  ["CCc1cccc(C(C)CC)c1NC(=O)CC1C(=O)Nc2ccccc2S1(=O)=O (centres undefined)", "SF-295", "inactive"],
  ["COc1cc(/N=N/c2cccc(S(N)(=O)=O)c2)c2ccccc2c1N", "SF-295", "inactive"],
  ["CC(C)=CCC[C@@H](C)C1=C(O)C(=O)C(C)=C(c2c(I)c(=O)n(C)c(=O)n2C)C1=O", "SF-295", "inactive"],
  ["CC1C2CC(C/C2=N/O)C1(C)C (centres undefined)", "SF-295", "inactive"],
  ["Nc1ccc2nc(Nc3ccc(Cl)c(Cl)c3)cnc2c1", "SF-295", "inactive"],
  ["O=c1c2sc(=S)n(-c3ccc(F)cc3)c2ncn1/N=C/c1ccc(F)cc1F", "SF-295", "inactive"],
  ["COc1ccc(C(c2ccc(OC)cc2)N2C(=O)CCC2C(=O)O)cc1 (centres undefined)", "SF-295", "inactive"],
  ["COc1cc2c(cc1O)[C@]1(Cc3ccc4c(c3C1=O)OCO4)N(C)CC2", "SF-295", "inactive"],
  ["CCCCNC1=C(C(=O)OCC)/C(=N/NC(=O)c2ccccc2O)CO1", "SF-295", "inactive"],
  ["O=c1ccn(C2OC(CN(O)CCC3C(O)C(CO)OC3n3ccc(=O)[nH]c3=O)C(O)C2O)c(=O)[nH]1 (centres undefined)", "SF-295", "inactive"],
  ["N/C(=N\\O)N/N=C/c1cccs1", "SF-295", "inactive"],
  ["COc1cc(C(c2c(O)c3ccccc3oc2=O)c2c(O)c3ccccc3oc2=O)ccc1O", "SF-295", "inactive"],
  ["COc1nc2nccnc2c(=O)n1C", "SF-295", "inactive"],
  ["ClCCN1CCO/C1=N/c1ccc2c(c1)CCCC2", "SF-295", "inactive"],
  ["NC(=S)SC1=NC(=O)C2(NN1)c1ccccc1-c1ccccc12", "SF-295", "inactive"],
  ["CC1=NCCN=C(C)C1/N=N/c1ccc2[nH]c(C)nc2c1", "SF-295", "inactive"],
  ["CC(C)(C)n1c(=O)n2c(-c3ccccc3)c(-c3ccccc3)n2c1=O", "SF-295", "inactive"],
  ["CS(=O)(=O)O[C@H]1[C@H](O)c2ccccc2[C@@H]1N=[N+]=[N-]", "SF-295", "inactive"],
  ["O=P1(c2ccccc2)c2ccccc2CCc2ccccc21", "SF-295", "inactive"],
  ["O=C1Nc2ccccc2/C1=N/Nc1nc(-c2ccc(Cl)c(Cl)c2)cs1", "SF-295", "inactive"],
  ["COc1ccccc1N1C(=O)CC(=O)N(C(=O)CCCCCCCCC(=O)N2C(=O)CC(=O)N(c3ccccc3OC)C2=S)C1=S", "SF-295", "inactive"],
  ["COc1c(O)c(OC)c2oc(-c3ccc(O)cc3)c(OC)c(=O)c2c1O", "SF-295", "inactive"],
  ["CCN1C(=O)/C(=C\\Nc2ccccc2)S/C1=N/Nc1ncc(CC(=O)Nc2ccccc2C)s1", "SF-295", "inactive"]
]}

---

- System: OVCAR-4
- ASSAY SUMMARY: NCI tumour cell line growth inhibition, 48 h
Active and inactive are the calls of the source. No stated cut-off is given here; in the data, active = GI50 up to about 1.1 µM and inactive = higher.
OBSERVATION TYPE: GI50

{"columns": ["MOLECULE", "EXPERIMENTAL TARGET", "DATA VALUE"],
 "data": [
  ["S=C1SCN(C2CCCCCCCCCCC2)CN1C1CCCCCCCCCCC1", "OVCAR-4", "86.7 µM (inactive)"],
  ["CCOC(=O)C1C(=O)CC(=O)C2CCCCC21 (stereo not given)", "OVCAR-4", "> 100 µM (inactive)"],
  ["c1ccc(-c2cc(-c3ccccc3)nc(-c3ccncc3)c2)cc1", "OVCAR-4", "16.4 µM (inactive)"],
  ["CC(=O)N(C(=O)CC(=O)N1N=C(c2ccccc2)C(/N=N/c2ccccc2[N+](=O)[O-])C1=O)c1ccc(Cl)cc1 (stereo not given)", "OVCAR-4", "> 10 µM (inactive)"],
  ["O=C1Nc2ccccc2NC1C1OC(c2ccccc2)=CC1=O (stereo not given)", "OVCAR-4", "> 100 µM (inactive)"]
]}

Sourced from ChEMBL document CHEMBL1201862
